Every entry's value here was drawn from BigSolDB 2.1.

# protocol.conditions: in n-octanol, 315.15 K
quantity: solubility (mole fraction)

Below, each entry is followed by its recorded solubility (mole fraction) result.
> print(dat)
                                   compound                    quantity  measurement
1  Cc1ccc(N=C2SCC3CCCN2C3)cc1Cl (stereo not drawn)  solubility (mole fraction)      0.00736
2  N#Cc1ccc(N=C2SCC3CCCN2C3)cc1 (stereo not drawn)  solubility (mole fraction)       0.0202
3  Cc1ccc(N=C2SCC3CCCN2C3)cc1 (stereo not drawn)  solubility (mole fraction)        0.209
4  CC(=O)c1ccc(N=C2SCC3CCCN2C3)cc1 (stereo not drawn)  solubility (mole fraction)       0.0202
5  CC(C)c1ccc(N=C2SCC3CCCN2C3)cc1 (stereo not drawn)  solubility (mole fraction)        0.194

(I) CCc1ccc(N=C2SCC3CCCN2C3)cc1 (stereo not drawn)
(II) Fc1ccc(N=C2SCC3CCCN2C3)cc1 (stereo not drawn)
Prompt: Between I and II , whose measured solubility (mole fraction) reads higher? Write down the label attached to your selection.
Response: II
(II: 0.0567, I: 0.0224)
